Reported Kd values for a set of binders
target: T1, Benefix (Pfizer Inc, USA), FIX (human, UniProt P00740 47-461); experiment: SPR, FIX (Benefix) captured on immobilised anti-GLA-FIX antibody, steady state analysis, 25 C
T1 construct: Bought product; also called FIX (Benefix®)
T1 sequence (P00740 47-461 T194A limits assumed): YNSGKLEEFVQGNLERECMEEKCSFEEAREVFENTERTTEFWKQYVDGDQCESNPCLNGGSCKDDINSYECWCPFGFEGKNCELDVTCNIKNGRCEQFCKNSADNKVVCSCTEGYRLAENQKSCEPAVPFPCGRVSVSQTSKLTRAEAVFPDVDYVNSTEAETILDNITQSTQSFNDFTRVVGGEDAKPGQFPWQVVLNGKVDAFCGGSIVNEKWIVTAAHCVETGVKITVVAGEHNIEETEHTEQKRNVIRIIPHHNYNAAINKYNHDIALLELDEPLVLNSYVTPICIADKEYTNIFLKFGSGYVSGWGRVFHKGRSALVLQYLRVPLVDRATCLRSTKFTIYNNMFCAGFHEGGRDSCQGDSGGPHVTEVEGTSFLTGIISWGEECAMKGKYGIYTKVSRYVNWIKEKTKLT
The reply should contain only the number, in nM.

Below are worked cases with known answers.
Query Cmpd #4 (anti-FX/anti-FIX(a) VHH polypeptide derivative) (bispecific antibody, C18 diacid protractor (P3) via linker LP1 on Cys6 in C-term extension (SEQ ID NO: 7), Single chain of two VHH: anti-FX (N-terminal) and anti-FIX(a) (C-terminal)) DVQLVESGGGVVQPGGSLRLSCAASGRTHSRYAMGWFRQAPGKEREFVAAISRRGGSTNYADSVKGRFTISRDNSKNTVYLQMNSLRPEDTALYYCAADDSSGDGYLDYWGQGTLVTVSSGGGGSGGGSEVQLVESGGGVVQPGGSLRLSCAASGRTFNIYTMSWFRQAPGKEREFVAGLRWTDSSTEYADSVKGRFTISRDNSKNTVYLQMNSLRPEDTALYYCAADRSFLFAQALGATKNYEYWGQGTLVTVSSGGGGSCHHHHHH yields Kd of 11.7

Entry Cmpd #15 (anti-FX/anti-FIX(a) VHH polypeptide derivative) (bispecific antibody, C16 diacid protractor (P2) via linker LP1 on Cys4 and Cys6 in C-term extension (SEQ ID NO:9), Single chain of two VHH: anti-FX (N-terminal) and anti-FIX(a) (C-terminal); also called VHH1.15-L1-2-VHH2.15-E) DVQLVESGGGVVQPGGSLQLSCAASGGTKRRLAMGWFRQAPGQEREWVAAISRRGGSTNYADSVKGRFTISRDNSKNTVYLQMDSLRPEDTALYYCAADDSVGDGYLDYWGQGTLVTVSSGQAPGQEVQLVESGGGVVQPGGSLQLSCAASGRTFNIYTMSWFRQAPGQEREFVAGLRWTDSSTEYADSVKGRFTISRDNSKNTVYLQMDSLRPEDTALYYCAADRSFLFAQALGATKNYEYWGQGTLVTVSSGQACPC , Kd reported as 3

Next:
Reported Kd of Cmpd #10 (anti-FX/anti-FIX(a) VHH polypeptide derivative) (bispecific antibody, C16 diacid protractor (P2) via linker LP1 on Cys4 and Cys6 in C-term extension (SEQ ID NO: 9), Single chain of two VHH: anti-FX (N-terminal) and anti-FIX(a) (C-terminal)) DVQLVESGGGVVQPGGSLQLSCAASGGTKRRLAMGWFRQAPGQEREWVAAISRRGGSTNYADSVKGRFTISRDNSKNTVYLQMDSLRPEDTALYYCAADDSVGDGYLDYWGQGTLVTVSSGQAPGQEVQLVESGGGVVQPGGSLRLSCAASGRTFNIYTMSWFRQAPGQEREFVAGLRWTDSSTEYADSVKGRFTISRDNSKNTVYLQMNSLRPEDTALYYCAADRSFLFAQALGATKNYEYWGQGTLVTVSSGQACPC : 5.5
